Target: UniProt:P55055
Sequence (P55055 whole entry): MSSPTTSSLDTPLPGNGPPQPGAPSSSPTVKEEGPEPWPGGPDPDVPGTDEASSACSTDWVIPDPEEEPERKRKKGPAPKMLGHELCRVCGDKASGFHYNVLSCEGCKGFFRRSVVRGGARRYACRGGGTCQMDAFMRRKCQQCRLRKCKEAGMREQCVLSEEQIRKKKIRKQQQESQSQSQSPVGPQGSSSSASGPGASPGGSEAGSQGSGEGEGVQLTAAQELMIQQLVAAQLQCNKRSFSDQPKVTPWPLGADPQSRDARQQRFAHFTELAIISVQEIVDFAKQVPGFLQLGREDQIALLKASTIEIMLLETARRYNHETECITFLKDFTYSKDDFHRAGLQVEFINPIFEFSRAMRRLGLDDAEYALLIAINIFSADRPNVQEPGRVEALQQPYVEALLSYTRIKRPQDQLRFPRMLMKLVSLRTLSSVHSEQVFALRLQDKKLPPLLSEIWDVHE
Experiment: Displacement of [3H]N-(4-(1,1,1,3,3,3-hexafluoro-2-hydroxypropan-2-yl)phenyl)-N-methylbenzenesulfonamide from LXRbeta by scintillation proximity assay
pIC50: −log10 of the molar value.
Quantity Name: pIC50

Request: Endpoint output: pIC50 of COC(c1ccc(N(C)S(=O)(=O)c2ccccc2)cc1)(c1cccn1Cc1ccccc1)C(F)(F)F (racemic) . Value?
Response: < 5.00
